target.or.system: DNMT1 full-length (Homo sapiens, UniProt P26358 SEQ:1-1616)
Sequence (P26358 whole entry): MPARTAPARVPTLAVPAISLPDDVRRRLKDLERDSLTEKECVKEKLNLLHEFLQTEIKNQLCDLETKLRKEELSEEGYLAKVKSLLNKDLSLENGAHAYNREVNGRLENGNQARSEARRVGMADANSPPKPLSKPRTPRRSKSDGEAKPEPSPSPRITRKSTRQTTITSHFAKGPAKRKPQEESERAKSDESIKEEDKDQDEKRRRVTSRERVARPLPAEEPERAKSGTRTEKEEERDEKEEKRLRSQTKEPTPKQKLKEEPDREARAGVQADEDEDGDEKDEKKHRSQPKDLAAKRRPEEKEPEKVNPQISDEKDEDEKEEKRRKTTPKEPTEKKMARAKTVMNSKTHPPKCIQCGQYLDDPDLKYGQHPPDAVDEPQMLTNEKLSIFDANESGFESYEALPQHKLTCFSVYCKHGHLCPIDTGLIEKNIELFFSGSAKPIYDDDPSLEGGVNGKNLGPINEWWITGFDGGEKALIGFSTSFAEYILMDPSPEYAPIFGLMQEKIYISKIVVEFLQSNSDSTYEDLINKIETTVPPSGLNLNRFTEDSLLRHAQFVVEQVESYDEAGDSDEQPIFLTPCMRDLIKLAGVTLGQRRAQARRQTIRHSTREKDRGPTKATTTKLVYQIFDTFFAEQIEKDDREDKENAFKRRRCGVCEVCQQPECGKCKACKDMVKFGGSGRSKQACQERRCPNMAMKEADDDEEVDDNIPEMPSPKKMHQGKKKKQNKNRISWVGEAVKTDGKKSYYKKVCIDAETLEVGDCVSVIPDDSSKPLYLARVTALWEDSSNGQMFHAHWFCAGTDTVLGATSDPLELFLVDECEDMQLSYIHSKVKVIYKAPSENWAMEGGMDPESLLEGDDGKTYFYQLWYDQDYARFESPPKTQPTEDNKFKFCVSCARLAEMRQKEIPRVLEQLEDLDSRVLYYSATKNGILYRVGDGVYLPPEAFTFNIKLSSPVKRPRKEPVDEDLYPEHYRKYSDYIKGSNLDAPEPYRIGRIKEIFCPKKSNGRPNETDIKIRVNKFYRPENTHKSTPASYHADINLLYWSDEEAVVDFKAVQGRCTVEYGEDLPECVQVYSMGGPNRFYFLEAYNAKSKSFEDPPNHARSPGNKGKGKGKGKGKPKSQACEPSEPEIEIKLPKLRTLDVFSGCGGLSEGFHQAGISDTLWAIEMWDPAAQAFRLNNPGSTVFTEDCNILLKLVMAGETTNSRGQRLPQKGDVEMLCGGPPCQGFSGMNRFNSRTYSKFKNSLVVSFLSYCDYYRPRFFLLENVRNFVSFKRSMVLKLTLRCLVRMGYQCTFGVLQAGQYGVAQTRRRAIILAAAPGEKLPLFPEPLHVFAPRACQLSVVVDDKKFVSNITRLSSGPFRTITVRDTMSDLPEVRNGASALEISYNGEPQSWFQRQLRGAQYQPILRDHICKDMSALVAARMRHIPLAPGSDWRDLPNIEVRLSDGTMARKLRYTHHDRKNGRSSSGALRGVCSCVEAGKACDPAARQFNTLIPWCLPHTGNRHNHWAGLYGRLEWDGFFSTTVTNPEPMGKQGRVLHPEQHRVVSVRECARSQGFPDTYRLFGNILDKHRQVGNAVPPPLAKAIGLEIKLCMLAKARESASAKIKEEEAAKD
assay.method.text: inhibition; competitive vs hemimethylated DNA
condition.description: tags: baculovirus Sf9; label: 5'-33P in pull-down; predicted to lack stem-loop
property.measured: pKi
The quantity pKi is defined as the negative base-10 logarithm of the molar concentration.

Data request, read-out pKi, for GACAGUGGAGAGGGGCGGAGCGG (ssRNA) [asCEBPα-2HPE]
6.87
